A collection of sequences and their measured folding stability dG unfold
Measurement Protocol: folding stability dG unfold (combined trypsin and chymotrypsin); higher = more stable
Assay Readout: folding stability dG unfold

• SAGGSAGGSGMEEAIEKAKKEILEKNPDLPPNAVVNEPILVKDPSTDEEYVIPVTFTIPENNLSAGGSAGGS [r12_591_JUSTAS] = -0.61 kcal/mol
• SAGPMTLEILYKRPANEPFTLEDLELAKEVEEAVAALVPSKYKVRIKSIEYEKYPDYYYIRVTIEVEKPSAG [r5_121_TrMRF] = 4.64 kcal/mol
• SAGSIEIYIIYPPEDPDQPPTEEEIRSIARSLARQLGLPPKDFPIDVEWRRIDPEDGIYVYEITIEFPSAGG [r19_244_TrROS] = 3.27 kcal/mol
• SAGGSAGGSKITVHRNPPGYYVIRIHGPGPITIMIPPKDADELANKLKDLGFDMKVEVYPLDDSAGGSAGGS [r20_124_TrROS] = 1.1 kcal/mol
• SAGGSAGGSKEKKYLVIELKLKVPPGMSPEELAKLLESLPGLKVVEIVEVDEESGTVKIVVELSAGGSAGGS [r12_712_TrROS_Hall] = 3.07 kcal/mol
• SAGGPGFQRYPYTLELPDGRKITVEYWRMGDNPYVQIDIRHDGEPLGTIHVPVPSPDQIEDAAKDIISAGGS [r16_55_TrROS] = 1.58 kcal/mol
• SAGGSAGGSAGGSKLPPGAKVKIRFPNNNKEHEIKSPEQIKTFEIDGREMKIRKIEVEDSAGGSAGGSAGGS [r4_214_TrROS] = < -1 kcal/mol

Value source: the supplement of paper PMC12764529
